- experiment.description: DPPH radical scavenging activity
- stated.conditions: DPPH 300 μM in methanol, 30 minutes, 25 °C
pIC50: −log10 of the molar value.
Reported pIC50 values for the following molecules.

# molecule, pIC50
measured = [
    ("CC1CCN(c2nn(-c3ccnc4cc(Cl)ccc34)c3ncnc(N)c23)CC1 [Compound 10c]", 2.68),
    ("Nc1ncnc2[nH]nc(N3CCCCC3)c12", 2.47),
    ("COc1ccc(Nc2ccnc3cc(Cl)ccc23)cc1 [Compound 12f]", "< 2.40"),
    ("Clc1ccc(Nc2ccnc3cc(Cl)ccc23)cc1 [Compound 12c]", "< 2.40"),
    ("Nc1ncnc2c1c(N1CCOCC1)nn2-c1ccnc2cc(Cl)ccc12 [Compound 10d]", "< 2.40"),
    ("Clc1ccc2c(Cl)ccnc2c1", "< 2.40"),
    ("Clc1ccc2c(Nc3ccccc3)ccnc2c1 [Compound 12a, 7‐Chloro‐N‐Phenylquinolin‐4‐Amine]", "< 2.40"),
    ("Nc1ncnc2c1cnn2-c1ccnc2cc(Cl)ccc12 [Compound 10a]", "< 2.40"),
    ("CN1CCN(c2nn(-c3ccnc4cc(Cl)ccc34)c3ncnc(N)c23)CC1 [Compound 10e]", "< 2.40"),
    ("CC1CCN(c2n[nH]c3ncnc(N)c23)CC1", "< 2.40"),
    ("Clc1ccc2c(Nc3ccc(Br)cc3)ccnc2c1 [Compound 12d]", "< 2.40"),
    ("Nc1ncnc2c1c(N1CCCCC1)nn2-c1ccnc2cc(Cl)ccc12 [Compound 10b]", "< 2.40"),
    ("Cc1ccc(Nc2ccnc3cc(Cl)ccc23)cc1 [Compound 12e, 7‐Chloro‐N‐(p–tolyl)quinolin‐4‐Amine]", "< 2.40"),
    ("Nc1ncnc2c1c(N1CCN(CCO)CC1)nn2-c1ccnc2cc(Cl)ccc12", 2.53),
]

---

- experiment.description: Nitric oxide (NO) scavenging activity
- stated.conditions: sodium nitroprusside, pH 7.4, 2 hr, 37 °C, Griess reagent
- Protocol: The NO radical mop‐up ability of the compounds was evaluated using Kurian et al.[49] previous protocol. […] After 2 hr equilibration at 37 °C, 0.250 mL of Griess reagent was added, and the absorbance of the coloured solution produced was measured at 545 nm against a blank solution lacking the test samples. Subsequently, the % NO scavenging antioxidant capacity of the compounds was expressed as: %Nitricoxidescavenging=1-TestsampleAbs/BlankAbs×100

# molecule, IC50
rows = [
    ("Nc1ncnc2[nH]nc(N3CCOCC3)c12", "880 µM"),
    ("Clc1ccc2c(Cl)ccnc2c1", "820 µM"),
    ("COc1ccc(Nc2ccnc3cc(Cl)ccc23)cc1 [Compound 12f]", "880 µM"),
]
